Reference for the values: patent US20210038607A1

biological target: Complex of human HDAC3 and human NCOR2 (Homo sapiens); construct: full length with C-terminal His tag, MW=49.7 kDa; His (C); host or cells: baculovirus expression system (co-expressed); experiment: HDAC3 biochemical assay, AMC-labeled peptide substrate; conditions: read-out: HDAC Isoform IC50 (nM) 3
Sequence (O15379 whole entry, canonical isoform): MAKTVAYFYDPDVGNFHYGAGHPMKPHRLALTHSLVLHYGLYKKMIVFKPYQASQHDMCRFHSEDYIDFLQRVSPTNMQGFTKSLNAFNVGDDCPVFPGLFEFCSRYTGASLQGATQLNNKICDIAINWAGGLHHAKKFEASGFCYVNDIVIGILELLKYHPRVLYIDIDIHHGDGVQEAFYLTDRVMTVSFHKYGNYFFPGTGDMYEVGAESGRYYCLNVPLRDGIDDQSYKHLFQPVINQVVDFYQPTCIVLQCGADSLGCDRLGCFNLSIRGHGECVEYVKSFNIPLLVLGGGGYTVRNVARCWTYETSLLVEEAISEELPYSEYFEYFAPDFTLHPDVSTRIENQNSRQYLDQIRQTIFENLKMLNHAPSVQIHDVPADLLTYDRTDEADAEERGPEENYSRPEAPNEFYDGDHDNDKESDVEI
Sequence (Q9Y618 395-489 partner limits assumed): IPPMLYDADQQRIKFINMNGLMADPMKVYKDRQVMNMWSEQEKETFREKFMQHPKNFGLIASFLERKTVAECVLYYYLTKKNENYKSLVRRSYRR
QUANTITY NAME: IC50

{"ITEM SMILES": "[O-][S+]1CCN(Cc2ccc(N(Cc3ccc(-c4noc(C(F)(F)F)n4)s3)c3cnccn3)nn2)CC1", "IC50": "> 10000 nM"}
{"ITEM SMILES": "O=C(c1nccnc1N(Cc1ccc(-c2noc(C(F)(F)F)n2)s1)c1cnccn1)N1CCC1", "IC50": "> 10000 nM"}
{"ITEM SMILES": "Cc1cnc(N(Cc2ccc(-c3noc(C(F)(F)F)n3)s2)c2cnccn2)cn1", "IC50": "> 10000 nM"}
{"ITEM SMILES": "COC1CN(Cc2ccnc(N(Cc3ccc(-c4noc(C(F)(F)F)n4)s3)c3cnccn3)c2)C1", "IC50": "> 10000 nM"}
{"ITEM SMILES": "COC1(C(F)(F)F)CN(C(=O)c2cnnc(N(Cc3ccc(-c4noc(C(F)(F)F)n4)s3)c3cnccn3)c2)C1", "IC50": "≤ 10000 nM"}

Consider "FC(F)(F)c1nc(-c2ccc(CN(c3ccccn3)c3ccccn3)s2)no1" . Its measured IC50 is > 10000 nM

Consider "Cc1cnnc(N(Cc2ccc(-c3noc(C(F)(F)F)n3)s2)c2cnccn2)c1" . Its measured IC50 is > 10000 nM

Consider "FC(F)(F)c1ccc(N(Cc2ccc(-c3noc(C(F)(F)F)n3)s2)c2cnccn2)nn1" . Its measured IC50 is ≤ 10000 nM

* * *

target: Human HDAC5 (Homo sapiens, UniProt Q9UQL6); construct: full length with C-terminal His tag, MW=51.1 kDa; His (C); host or cells: baculovirus expression system; assay: HDAC5 biochemical assay, class IIa-specific substrate; details: read-out: HDAC Isoform IC50 (nM) 5
Sequence (Q9UQL6 656-1122 limits assumed): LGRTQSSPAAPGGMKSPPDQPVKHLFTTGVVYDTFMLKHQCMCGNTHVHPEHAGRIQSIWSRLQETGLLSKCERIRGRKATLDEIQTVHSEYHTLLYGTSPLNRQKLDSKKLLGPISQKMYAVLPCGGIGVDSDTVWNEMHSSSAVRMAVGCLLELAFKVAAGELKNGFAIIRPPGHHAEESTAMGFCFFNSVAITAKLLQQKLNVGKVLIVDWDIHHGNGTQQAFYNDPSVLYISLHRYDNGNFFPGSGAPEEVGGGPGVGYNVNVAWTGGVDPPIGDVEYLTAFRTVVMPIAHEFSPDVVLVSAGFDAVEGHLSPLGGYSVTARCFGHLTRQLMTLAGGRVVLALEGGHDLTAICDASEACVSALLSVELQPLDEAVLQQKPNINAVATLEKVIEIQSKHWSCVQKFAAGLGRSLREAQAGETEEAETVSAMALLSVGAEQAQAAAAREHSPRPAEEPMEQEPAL
QUANTITY NAME: IC50

{"ITEM SMILES": "FC(F)(F)c1nc(-c2ccc(CN(c3cnccn3)c3ccc(N4CCCC4)nn3)s2)no1", "TEST VALUE": "≤ 1000 nM"}
{"ITEM SMILES": "O=C(c1ccc(N(Cc2ccc(-c3noc(C(F)(F)F)n3)s2)c2cnccn2)nn1)N1CCCC1", "TEST VALUE": "≤ 500 nM"}

Consider "O=C(c1ccc(N(Cc2ccc(-c3noc(C(F)(F)F)n3)s2)c2cnccn2)nn1)N1CCC12COC2" . Its measured IC50 is ≤ 500 nM

* * *

molecular target: Recombinant human HDAC6 (Homo sapiens, UniProt Q9UBN7); construct: full length, MW=159 kDa; GST (N); host or cells: Sf9 insect cells (baculovirus); assay: HDAC6 biochemical assay, AMC-labeled peptide substrate; settings: HDAC6; read-out: HDAC Isoform IC50 (nM) 6
Sequence (Q9UBN7 whole entry, canonical isoform): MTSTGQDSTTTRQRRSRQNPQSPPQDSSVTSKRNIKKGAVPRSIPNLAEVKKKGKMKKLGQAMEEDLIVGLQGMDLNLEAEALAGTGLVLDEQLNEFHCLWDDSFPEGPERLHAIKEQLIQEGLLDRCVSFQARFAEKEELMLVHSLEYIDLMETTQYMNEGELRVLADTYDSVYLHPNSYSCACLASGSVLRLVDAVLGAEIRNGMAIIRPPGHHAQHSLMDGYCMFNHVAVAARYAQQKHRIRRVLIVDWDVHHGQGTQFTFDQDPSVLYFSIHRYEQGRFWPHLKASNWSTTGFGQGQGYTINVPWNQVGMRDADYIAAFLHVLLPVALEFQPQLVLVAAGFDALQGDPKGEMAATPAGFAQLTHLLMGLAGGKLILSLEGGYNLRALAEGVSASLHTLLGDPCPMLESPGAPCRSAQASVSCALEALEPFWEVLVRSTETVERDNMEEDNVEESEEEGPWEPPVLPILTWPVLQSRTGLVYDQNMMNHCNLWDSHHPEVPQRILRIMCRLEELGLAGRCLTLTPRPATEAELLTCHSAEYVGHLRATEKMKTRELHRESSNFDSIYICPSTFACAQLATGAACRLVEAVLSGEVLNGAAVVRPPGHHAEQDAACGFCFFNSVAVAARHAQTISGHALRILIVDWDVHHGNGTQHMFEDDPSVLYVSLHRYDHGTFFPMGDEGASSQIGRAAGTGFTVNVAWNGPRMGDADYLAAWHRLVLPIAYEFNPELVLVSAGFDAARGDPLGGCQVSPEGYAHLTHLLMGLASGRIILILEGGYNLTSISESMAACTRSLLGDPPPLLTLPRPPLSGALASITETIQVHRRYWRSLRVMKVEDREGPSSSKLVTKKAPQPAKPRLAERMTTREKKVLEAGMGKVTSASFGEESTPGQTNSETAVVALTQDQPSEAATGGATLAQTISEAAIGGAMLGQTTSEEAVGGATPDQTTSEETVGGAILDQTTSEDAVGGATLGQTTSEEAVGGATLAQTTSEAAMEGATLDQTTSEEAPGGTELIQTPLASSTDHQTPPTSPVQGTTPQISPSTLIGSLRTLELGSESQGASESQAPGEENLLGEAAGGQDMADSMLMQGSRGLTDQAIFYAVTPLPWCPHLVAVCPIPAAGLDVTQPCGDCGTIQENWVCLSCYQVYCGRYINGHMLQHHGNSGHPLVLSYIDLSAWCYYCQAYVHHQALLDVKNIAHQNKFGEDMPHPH
Entries and their IC50

Some compounds with known IC50 results, for comparison:
{"ITEM SMILES": "C[C@H]1CCCN1C(=O)c1cnnc(N(Cc2ccc(-c3noc(C(F)(F)F)n3)s2)c2cnccn2)c1", "ASSAYED TARGET": "Recombinant human HDAC6 (Homo sapiens, UniProt Q9UBN7)", "IC50": "≤ 500 nM"}
{"ITEM SMILES": "O=C(c1ccc(N(Cc2ccc(-c3noc(C(F)(F)F)n3)s2)c2cnccn2)nn1)N1CCC12COC2", "ASSAYED TARGET": "Recombinant human HDAC6 (Homo sapiens, UniProt Q9UBN7)", "IC50": "≤ 500 nM"}
{"ITEM SMILES": "FC(F)(F)c1nc(-c2ccc(CN(c3ccc(N4CCOCC4)cn3)c3cnccn3)s2)no1", "ASSAYED TARGET": "Recombinant human HDAC6 (Homo sapiens, UniProt Q9UBN7)", "IC50": "≤ 10000 nM"}
{"ITEM SMILES": "CN(C)C(=O)c1cncc(N(Cc2ccc(-c3noc(C(F)(F)F)n3)s2)c2cnccn2)n1", "ASSAYED TARGET": "Recombinant human HDAC6 (Homo sapiens, UniProt Q9UBN7)", "IC50": "≤ 10000 nM"}
{"ITEM SMILES": "OC1(c2cnnc(N(Cc3ccc(-c4noc(C(F)(F)F)n4)s3)c3cnccn3)c2)COC1", "ASSAYED TARGET": "Recombinant human HDAC6 (Homo sapiens, UniProt Q9UBN7)", "IC50": "≤ 500 nM"}
{"ITEM SMILES": "FC(F)(F)c1cnnc(N(Cc2ccc(-c3noc(C(F)(F)F)n3)s2)c2cccnn2)c1", "ASSAYED TARGET": "Recombinant human HDAC6 (Homo sapiens, UniProt Q9UBN7)", "IC50": "≤ 500 nM"}

With those in mind, consider the next compound.
Consider "FC(F)(F)c1nc(-c2ccc(CN(c3ccc(C4CC4)cn3)c3cnccn3)s2)no1" . Its measured IC50 is ≤ 10000 nM

* * *

Target: Human HDAC5 (Homo sapiens, UniProt Q9UQL6)
Construct: full length with C-terminal His tag, MW=51.1 kDa; His (C); host or cells: baculovirus expression system
Experiment: HDAC5 biochemical assay, class IIa-specific substrate
Conditions: read-out: HDAC Isoform IC50 (nM) 5
Procedure: Activity against all zinc-dependent HDACs 1 to 11 was assessed by using an acetylated AMC-labeled peptide substrate. The substrate RHKK(Ac)AMC was used for HDAC1, HDAC2, HDAC3, HDAC6 and HDAC10; the substrate used for HDAC8 was RHK(Ac)K(Ac)AMC. Activity against the class IIa HDACs (HDAC4, 5, 7, 9) and HDAC11 was determined using a class IIa-specific substrate, BOC-Lys(trifluoroacetyl)-AMC (“Trifluoroacetyl Lysine”; see Lahm et al, 2007, PNAS, 104, 17335-17340). […]
QUANTITY NAME: IC50

Some compounds with known IC50 results, for comparison:
{"ITEM SMILES": "O=C(c1cnnc(N(Cc2ccc(-c3noc(C(F)(F)F)n3)s2)c2cnccn2)c1)N1CC(C(F)F)C1", "IC50": "≤ 1000 nM"}
{"ITEM SMILES": "O=C(O)c1cnnc(N(Cc2ccc(-c3noc(C(F)(F)F)n3)s2)c2cc(C(F)(F)F)cnn2)c1", "IC50": "≤ 10000 nM"}
{"ITEM SMILES": "FC(F)(F)c1nc(-c2ccc(CN(c3cncnc3)c3cnccn3)s2)no1", "IC50": "≤ 500 nM"}
{"ITEM SMILES": "COc1ccc2ncnc(N(Cc3ccc(-c4noc(C(F)(F)F)n4)s3)c3cnccn3)c2c1", "IC50": "≤ 1000 nM"}

Consider "CN(C)C(=O)c1cncc(N(Cc2ccc(-c3noc(C(F)(F)F)n3)s2)c2cnccn2)n1" . Its measured IC50 is ≤ 10000 nM

Consider "Cc1nc(N2CCCC2)cc(N(Cc2ccc(-c3noc(C(F)(F)F)n3)s2)c2cnccn2)n1" . Its measured IC50 is ≤ 10000 nM

Consider "COc1nccc(N(Cc2ccc(-c3noc(C(F)(F)F)n3)s2)c2cnccn2)n1" . Its measured IC50 is ≤ 1000 nM

Consider "COc1cc(N(Cc2ccc(-c3noc(C(F)(F)F)n3)s2)c2cnccn2)ncn1" . Its measured IC50 is ≤ 10000 nM

Consider "O=C(c1cnnc(N(Cc2ccc(-c3noc(C(F)(F)F)n3)s2)c2cnccn2)c1)N1CCC1" . Its measured IC50 is ≤ 1000 nM

Consider "O=C(c1ccc(N(Cc2ccc(-c3noc(C(F)(F)F)n3)s2)c2cnccn2)nn1)N1CCC2(COC2)C1" . Its measured IC50 is ≤ 500 nM

* * *

Entries and their IC50
molecular target: Human HDAC4 (Homo sapiens, UniProt P56524); construct: amino acids 627-1085 with N-terminal GST tag; GST (N); host or cells: baculovirus expression system; assay: HDAC4 biochemical assay, class IIa-specific substrate; conditions: read-out: HDAC Isoform IC50 (nM) 4
Sequence (P56524 627-1084 limits assumed): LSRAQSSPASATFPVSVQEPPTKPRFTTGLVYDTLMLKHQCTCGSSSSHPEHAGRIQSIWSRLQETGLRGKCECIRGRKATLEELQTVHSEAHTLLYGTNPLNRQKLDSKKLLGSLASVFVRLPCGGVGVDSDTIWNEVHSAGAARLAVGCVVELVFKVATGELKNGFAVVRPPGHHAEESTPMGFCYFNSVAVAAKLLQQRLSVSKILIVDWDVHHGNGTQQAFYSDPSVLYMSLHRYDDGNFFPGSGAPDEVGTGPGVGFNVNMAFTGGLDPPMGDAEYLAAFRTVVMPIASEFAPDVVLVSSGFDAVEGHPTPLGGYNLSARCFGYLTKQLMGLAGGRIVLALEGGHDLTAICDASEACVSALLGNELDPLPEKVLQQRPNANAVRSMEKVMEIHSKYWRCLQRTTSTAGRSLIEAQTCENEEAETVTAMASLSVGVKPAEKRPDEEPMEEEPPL

{"MOLECULE": "NC(=O)c1cnnc(N(Cc2ccc(-c3noc(C(F)(F)F)n3)s2)c2cnccn2)c1 [Example DX]", "IC50": "≤ 1000 nM"}
{"MOLECULE": "O=C(c1nccnc1N(Cc1ccc(-c2noc(C(F)(F)F)n2)s1)c1cnccn1)N1CC(O)(C(F)(F)F)C1 [Example GQ]", "IC50": "≤ 10000 nM"}
{"MOLECULE": "O=C(c1cnnc(N(Cc2ccc(-c3noc(C(F)(F)F)n3)s2)c2cnccn2)c1)N1CC(C(F)F)C1 [Example GK]", "IC50": "≤ 1000 nM"}
{"MOLECULE": "O=C(c1cnnc(N(Cc2ccc(-c3noc(C(F)(F)F)n3)s2)c2cnccn2)c1)N1CC2(COC2)C1 [Example FZ]", "IC50": "≤ 10000 nM"}
{"MOLECULE": "FC(F)(F)c1cncc(N(Cc2ccc(-c3noc(C(F)(F)F)n3)s2)c2cnccn2)n1 [Example BR]", "IC50": "≤ 10000 nM"}
{"MOLECULE": "FC(F)(F)c1cnnc(N(Cc2ccc(-c3noc(C(F)(F)F)n3)s2)c2ccc(C(F)(F)F)nn2)c1 [Example EV]", "IC50": "≤ 10000 nM"}
{"MOLECULE": "CN1CCN(c2ccc(N(Cc3ccc(-c4noc(C(F)(F)F)n4)s3)c3cnccn3)nn2)CC1 [Example DK]", "IC50": "≤ 500 nM"}
{"MOLECULE": "Cc1nccnc1N(Cc1ccc(-c2noc(C(F)(F)F)n2)s1)c1cnccn1 [Example BE]", "IC50": "≤ 500 nM"}
{"MOLECULE": "COc1ccc2ncnc(N(Cc3ccc(-c4noc(C(F)(F)F)n4)s3)c3cnccn3)c2c1 [Example CN]", "IC50": "≤ 10000 nM"}
{"MOLECULE": "FC(F)(F)c1nc(-c2ccc(CN(c3ccncn3)c3cnccn3)s2)no1 [Example BZ]", "IC50": "≤ 500 nM"}

Consider FC(F)(F)c1nc(-c2ccc(CN(c3cnccn3)c3cnccn3)s2)no1 [Example BA] . Its measured IC50 is ≤ 1000 nM

Consider Cc1ncc(N(Cc2ccc(-c3noc(C(F)(F)F)n3)s2)c2cnccn2)cn1 [Example CS] . Its measured IC50 is ≤ 500 nM

Consider COc1nccc(N(Cc2ccc(-c3noc(C(F)(F)F)n3)s2)c2cnccn2)n1 [Example CB] . Its measured IC50 is ≤ 500 nM

Consider FC(F)(F)c1cnnc(N(Cc2ccc(-c3noc(C(F)(F)F)n3)s2)c2ncccc2N2CCOCC2)c1 [Example EH] . Its measured IC50 is ≤ 10000 nM
